These entries and their values trace back to patent US12358897B2.

ASSAYED_TARGET: full-length SARS-CoV-2 3CL protease (Severe acute respiratory syndrome coronavirus 2, UniProt P0DTD1)
Collected pKi values appear next to each entry.
// returns pKi (minus log10 of molar concentration), number only

Worked set:
smiles_representation=COc1cccc2[nH]c(C(=O)N[C@@H](CC(C)C)C(=O)N[C@@H](C[C@@H]3CCNC3=O)C(=O)COC(=O)c3c(C)cncc3C)cc12 attribute_measured=pKi recorded_number=8.12
smiles_representation=COc1cccc2[nH]c(C(=O)N[C@@H](CC(C)C)C(=O)N[C@@H](C[C@@H]3CCNC3=O)C(=O)COC(=O)c3ccnn3C)cc12 attribute_measured=pKi recorded_number=8.28
smiles_representation=COc1cccc2[nH]c(C(=O)N[C@@H](CC(C)C)C(=O)N[C@@H](C[C@@H]3CCNC3=O)C(=O)COC(=O)c3cn(C)nc3C)cc12 attribute_measured=pKi recorded_number=7.04

-- ask Identify pKi associated with the molecule COc1cccc2[nH]c(C(=O)N[C@@H](CC(C)C)C(=O)N[C@@H](C[C@@H]3CCNC3=O)C(=O)COC(=O)CN(C)C)cc12
-- reply 8.53

-- ask Identify pKi associated with the molecule COc1cccc2[nH]c(C(=O)N[C@@H](CC(C)C)C(=O)N[C@@H](C[C@@H]3CCNC3=O)C(=O)COC(=O)C3CCCCC3)cc12
-- reply 7.13

-- ask Identify pKi associated with the molecule CC[C@@H](C)C(=O)OCC(=O)[C@H](C[C@@H]1CCNC1=O)NC(=O)[C@H](CC(C)C)NC(=O)c1cc2c(OC)cccc2[nH]1
-- reply 7.19

----------
ASSAYED_TARGET: UniProt:P0DTD1
Collected pKi values appear next to each entry.
// returns pKi (minus log10 of molar concentration), number only

Worked set:
smiles_representation=COc1cccc2[nH]c(C(=O)N[C@@H](CC(C)C)C(=O)N[C@@H](C[C@@H]3CCNC3=O)C(=O)COC(=O)C3(C)CC3)cc12 assayed_target=UniProt:P0DTD1 recorded_number=6.98
smiles_representation=COc1cccc2[nH]c(C(=O)N[C@@H](CC(C)C)C(=O)N[C@@H](C[C@@H]3CCNC3=O)C(=O)COC(=O)c3ncn(C)c3C)cc12 assayed_target=UniProt:P0DTD1 recorded_number=6.51
smiles_representation=COc1cccc2[nH]c(C(=O)N[C@@H](CC(C)C)C(=O)N[C@@H](C[C@@H]3CCNC3=O)C(=O)COC(=O)c3c(C)nc(C4CCOCC4)nc3C)cc12 assayed_target=UniProt:P0DTD1 recorded_number=8.26

-- ask Enter recorded pKi with UniProt:P0DTD1 for COc1cccc2[nH]c(C(=O)N[C@@H](CC(C)C)C(=O)N[C@@H](C[C@@H]3CCNC3=O)C(=O)COC(=O)C3(C)CCCCC3)cc12 here.
-- reply 6.86

-- ask Enter recorded pKi with UniProt:P0DTD1 for COc1cccc2[nH]c(C(=O)N[C@@H](CC(C)C)C(=O)N[C@@H](C[C@@H]3CCNC3=O)C(=O)COC(=O)C3(C)CCN(C)CC3)cc12 here.
-- reply 7.76

-- ask Enter recorded pKi with UniProt:P0DTD1 for COc1cccc2[nH]c(C(=O)N[C@@H](CC(C)C)C(=O)N[C@@H](C[C@@H]3CCNC3=O)C(=O)COC(=O)c3cccnc3)cc12 here.
-- reply 8.02
